Biological target: soluble guanylate cyclase (human GUCYA3 and GUCYB3) overexpressed in CHO cells (Homo sapiens (Human), UniProt Q02108+Q02153)
Sequence (Q02108 whole entry partner): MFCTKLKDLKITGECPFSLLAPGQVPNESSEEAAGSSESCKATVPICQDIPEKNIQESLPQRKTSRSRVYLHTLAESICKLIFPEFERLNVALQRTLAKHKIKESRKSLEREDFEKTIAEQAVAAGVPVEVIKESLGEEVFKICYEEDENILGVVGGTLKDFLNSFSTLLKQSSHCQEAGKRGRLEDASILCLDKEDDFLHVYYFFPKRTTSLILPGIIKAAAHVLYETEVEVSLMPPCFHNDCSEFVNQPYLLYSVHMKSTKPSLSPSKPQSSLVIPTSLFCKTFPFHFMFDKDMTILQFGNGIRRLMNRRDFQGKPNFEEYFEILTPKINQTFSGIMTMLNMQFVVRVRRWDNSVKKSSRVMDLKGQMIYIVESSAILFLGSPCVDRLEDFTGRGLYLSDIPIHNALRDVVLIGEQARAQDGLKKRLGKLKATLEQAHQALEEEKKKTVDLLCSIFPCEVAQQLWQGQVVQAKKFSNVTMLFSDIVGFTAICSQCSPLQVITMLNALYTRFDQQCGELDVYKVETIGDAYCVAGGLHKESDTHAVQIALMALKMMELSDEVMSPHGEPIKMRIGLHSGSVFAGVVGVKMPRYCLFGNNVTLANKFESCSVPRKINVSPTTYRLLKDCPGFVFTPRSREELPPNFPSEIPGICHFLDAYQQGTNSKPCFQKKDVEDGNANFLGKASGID
Sequence (Q02153 whole entry): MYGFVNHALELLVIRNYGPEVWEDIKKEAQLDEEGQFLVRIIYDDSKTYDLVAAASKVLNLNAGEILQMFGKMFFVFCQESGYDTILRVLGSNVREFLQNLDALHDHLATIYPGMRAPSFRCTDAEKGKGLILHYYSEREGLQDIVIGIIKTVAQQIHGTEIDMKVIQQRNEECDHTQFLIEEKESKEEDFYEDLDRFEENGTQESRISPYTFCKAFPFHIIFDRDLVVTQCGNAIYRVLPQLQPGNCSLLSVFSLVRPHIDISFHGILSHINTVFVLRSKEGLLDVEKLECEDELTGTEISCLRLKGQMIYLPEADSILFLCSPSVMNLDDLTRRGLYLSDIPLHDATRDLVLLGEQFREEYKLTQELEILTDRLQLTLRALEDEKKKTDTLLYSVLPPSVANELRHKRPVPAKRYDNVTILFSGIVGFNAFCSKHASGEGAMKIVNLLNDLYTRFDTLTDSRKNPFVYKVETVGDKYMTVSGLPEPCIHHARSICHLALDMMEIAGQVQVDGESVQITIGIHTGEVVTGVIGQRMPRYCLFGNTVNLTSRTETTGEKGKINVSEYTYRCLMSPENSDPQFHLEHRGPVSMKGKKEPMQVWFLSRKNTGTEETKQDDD
Experiment: CHO cellular assay (cGMP production, Cisbio cGMP HTRF kit)
Assay type: cell-based
Conditions: CHO GUCY clone 8E10, cGMP production, assay buffer with 1 mM IBMX and 20 uM ODQ, 1 h room temperature; minimum quantification limit 0.5 nM (listed 0.5 nM means ≤0.5 nM); read-out: EC50
Entries annotated with measured EC50

Take a look at these entries with their results.
| molecule | measured.property | result |
| --- | --- | --- |
| CCc1cc(NC2CCc3cccc(-c4cccc(-n5ncc(C(=O)O)c5CC)n4)c32)ccc1C1CCN(C(=O)[C@H](C)O)CC1 (single isomer, unassigned; (+)) [Example 48a] | EC50 | ≤ 0.5 nM |
| CCc1cc(NC2CCc3cccc(-c4cccc(-n5ncc(C(=O)O)c5CC)n4)c32)ccc1C1CCN(C(=O)[C@@H](O)CC)CC1 (single isomer, unassigned; (+)) [Example 50a] | EC50 | ≤ 0.5 nM |

What value of measured EC50 is listed for CCc1c(C(=O)O)cnn1-c1cccc(-c2cccc3c2[C@@H](Oc2ccc(C4CCN(C(=O)C5CC5)CC4)cc2C)CC3)n1 [Example 5-7] ? ≤ 0.5 nM

These data points were gathered from patent US10550102B2.
